Target: EGFR del19/T790M/C797S (Homo sapiens, UniProt P00533, C797S/DEL746-750/T790M)
Sequence (P00533 with tags, fused parts or gaps DEL746-750/T790M/C797S): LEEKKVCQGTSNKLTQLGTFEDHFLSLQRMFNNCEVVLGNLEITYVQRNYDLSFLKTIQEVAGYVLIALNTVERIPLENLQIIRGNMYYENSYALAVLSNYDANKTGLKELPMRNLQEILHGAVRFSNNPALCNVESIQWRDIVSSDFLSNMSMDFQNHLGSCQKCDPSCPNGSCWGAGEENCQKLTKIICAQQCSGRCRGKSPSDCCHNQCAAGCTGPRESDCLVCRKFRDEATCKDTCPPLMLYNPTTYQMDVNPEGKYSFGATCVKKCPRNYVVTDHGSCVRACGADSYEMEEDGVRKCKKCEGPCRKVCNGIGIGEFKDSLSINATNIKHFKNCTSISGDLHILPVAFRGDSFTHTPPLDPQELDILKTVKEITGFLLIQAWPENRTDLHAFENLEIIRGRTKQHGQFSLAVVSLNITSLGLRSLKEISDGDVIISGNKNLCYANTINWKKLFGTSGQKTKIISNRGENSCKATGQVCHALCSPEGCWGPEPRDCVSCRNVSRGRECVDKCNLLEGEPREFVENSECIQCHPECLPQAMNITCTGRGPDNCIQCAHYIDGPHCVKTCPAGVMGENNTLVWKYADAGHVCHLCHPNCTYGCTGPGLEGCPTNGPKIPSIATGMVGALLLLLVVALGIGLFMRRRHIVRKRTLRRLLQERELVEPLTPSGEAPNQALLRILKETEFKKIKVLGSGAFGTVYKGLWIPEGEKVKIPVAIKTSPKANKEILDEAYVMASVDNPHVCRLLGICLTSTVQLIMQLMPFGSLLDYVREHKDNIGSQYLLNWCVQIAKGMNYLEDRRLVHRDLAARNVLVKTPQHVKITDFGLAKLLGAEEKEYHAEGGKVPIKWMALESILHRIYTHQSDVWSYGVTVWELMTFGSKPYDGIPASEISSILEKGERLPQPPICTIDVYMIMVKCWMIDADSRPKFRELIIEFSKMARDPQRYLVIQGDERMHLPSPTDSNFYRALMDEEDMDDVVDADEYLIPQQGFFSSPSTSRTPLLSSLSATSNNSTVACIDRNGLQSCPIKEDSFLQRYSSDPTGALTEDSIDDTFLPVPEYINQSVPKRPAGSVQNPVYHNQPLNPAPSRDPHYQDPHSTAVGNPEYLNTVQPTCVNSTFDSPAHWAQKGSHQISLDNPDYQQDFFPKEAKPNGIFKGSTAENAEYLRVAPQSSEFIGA
Assay: Biochemical EGFR kinase assay (Lance Ultra TR-FRET), triple mutant del19/T790M/C797S
Details: IC50 del19/T790M/C797S (nM) 100 μM ATP, 100 μM ATP
readout-label: IC50 (nM)

[
  {
    "compound": "CN(C)c1ccc(-c2cnc(Nc3ccnc(-c4cnn(S(=O)(=O)C5CC5)c4)n3)cc2N[C@H]2CC[C@@](C)(O)CC2)nc1 [Example 40]",
    "measured": 2.1
  }
]

(a) O=S(=O)(C1CC1)n1cc(-c2nccc(Nc3cc(N[C@H]4CC[C@@H](NCCF)CC4)c(-c4ccccn4)cn3)n2)cn1 [Example 36]
(b) O=S(=O)(C1CC1)n1cc(-c2nccc(Nc3cc(N[C@H]4CC[C@@H](CO)CC4)c(-c4cc(C(F)F)ccn4)cn3)n2)cn1 [Example 77]
(c) C[C@]1(O)CC[C@@H](Nc2cc(Nc3ccnc(-c4cnn(S(=O)(=O)C5CC5)c4)n3)ncc2-c2cccnn2)CC1 [Example 42]
Asked: Please list these in order of increasing IC50. Thank you! Write the labels out in the order the request specifies.
Given back: c, a, b
(c: 0.1 nM, a: 0.2 nM, b: 1.7 nM)

* * *

Biological target: EGFR del19/T790M/C797S (Homo sapiens, UniProt P00533, C797S/DEL746-750/T790M)
Assay: Biochemical EGFR kinase assay (Lance Ultra TR-FRET), triple mutant del19/T790M/C797S
Details: IC50 del19/T790M/C797S, 100 μM ATP
readout-label: IC50 (nM)

Check out these entries, answers already filled in.
[
  {
    "molecule": "O=S(=O)(C1CC1)n1cc(-c2nccc(Nc3cc(NCC4(CO)COC4)c(-c4cccc(F)n4)cn3)n2)cn1",
    "unit-abbreviation": "nM",
    "measured": 0.1
  },
  {
    "molecule": "CC(O)(c1ccc(-c2cnc(Nc3ccnc(-c4cnn(S(=O)(=O)C5CC5)c4)n3)cc2NC2CCC(CO)CC2)nc1)C(F)(F)F (stereo not drawn)",
    "unit-abbreviation": "nM",
    "measured": 2
  },
  {
    "molecule": "CN(C)CCNc1ccnc(-c2cnc(Nc3ccnc(-c4cnn(S(=O)(=O)C5CC5)c4)n3)cc2N[C@H]2CC[C@@](C)(O)CC2)c1",
    "unit-abbreviation": "nM",
    "measured": 1.1
  },
  {
    "molecule": "C[C@]1(O)CC[C@@H](Nc2cc(Nc3ccnc(-c4cnn(S(=O)(=O)C5CC5)c4)n3)ncc2-c2cnc(F)cn2)CC1",
    "unit-abbreviation": "nM",
    "measured": 8.3
  },
  {
    "molecule": "O=S(=O)(C1CC1)n1cc(-c2nccc(Nc3cc(N[C@H]4CC[C@@H](CO)CC4)c(-c4ccc(CC(F)(F)F)cn4)cn3)n2)cn1",
    "unit-abbreviation": "nM",
    "measured": 1.8
  },
  {
    "molecule": "CC(C)(O)[C@H]1CC[C@@H](Nc2cc(Nc3ccnc(-c4cnn(S(=O)(=O)C5CC5)c4)n3)ncc2-c2cccc(CC(F)(F)F)n2)CC1",
    "unit-abbreviation": "nM",
    "measured": 14.7
  },
  {
    "molecule": "CC(O)(c1ccc(-c2cnc(Nc3ccnc(-c4cnn(S(=O)(=O)C5CC5)c4)n3)cc2N[C@H]2CCC[C@H](CO)C2)nc1)C(F)(F)F (stereo partly drawn)",
    "unit-abbreviation": "nM",
    "measured": 2.1
  },
  {
    "molecule": "O=S(=O)(C1CC1)n1cc(-c2nccc(Nc3cc(N[C@H]4CC[C@@H](NCC(F)F)CC4)c(-c4cccc(F)n4)cn3)n2)cn1",
    "unit-abbreviation": "nM",
    "measured": 1.1
  },
  {
    "molecule": "CN(C)S(=O)(=O)c1ccc(-c2cnc(Nc3ccnc(-c4cnn(S(=O)(=O)C5CC5)c4)n3)cc2N[C@H]2CC[C@@H](C(C)(C)O)CC2)nc1",
    "unit-abbreviation": "nM",
    "measured": 1.2
  },
  {
    "molecule": "C[C@]1(O)CC[C@@H](Nc2cc(Nc3ccnc(-c4cnn(S(=O)(=O)C5CC5)c4)n3)ncc2-c2ccc(OC(F)(F)F)cn2)CC1",
    "unit-abbreviation": "nM",
    "measured": 3.4
  }
]

(P) CN(C)S(=O)(=O)c1ccc(-c2cnc(Nc3ccnc(-c4cnn(S(=O)(=O)C5CC5)c4)n3)cc2N[C@H]2CC[C@@H](CO)CC2)nc1
(Q) CC1(O)CCC(Nc2cc(Nc3ccnc(-c4cnn(S(=O)(=O)C5CC5)c4)n3)ncc2-c2cc(CN3CC(O)C3)ccn2)CC1 (stereo not drawn)
Asked: From the recorded data, which exceeds the other in IC50: P or Q ? Refer to your chosen entry by its label in the reply.
Given back: P
